Reported inhibition at 1 µM values for a set of molecules
molecular target: human Kv1.3 (Homo sapiens); construct: expressed in transfected cells; host or cells: stably transfected cells grown in medium for CHO cells; assay: Kv1.3 Autopatch electrophysiology (whole cell patch-clamp, inhibition of charge movement); format: cell-based; settings: compound at 1 μM; cells stably transfected with human Kv1.3; room temperature; total charge during step to +30 mV relative to control; read-out: hKv1.3 % inh.
Sequence (P22001 whole entry): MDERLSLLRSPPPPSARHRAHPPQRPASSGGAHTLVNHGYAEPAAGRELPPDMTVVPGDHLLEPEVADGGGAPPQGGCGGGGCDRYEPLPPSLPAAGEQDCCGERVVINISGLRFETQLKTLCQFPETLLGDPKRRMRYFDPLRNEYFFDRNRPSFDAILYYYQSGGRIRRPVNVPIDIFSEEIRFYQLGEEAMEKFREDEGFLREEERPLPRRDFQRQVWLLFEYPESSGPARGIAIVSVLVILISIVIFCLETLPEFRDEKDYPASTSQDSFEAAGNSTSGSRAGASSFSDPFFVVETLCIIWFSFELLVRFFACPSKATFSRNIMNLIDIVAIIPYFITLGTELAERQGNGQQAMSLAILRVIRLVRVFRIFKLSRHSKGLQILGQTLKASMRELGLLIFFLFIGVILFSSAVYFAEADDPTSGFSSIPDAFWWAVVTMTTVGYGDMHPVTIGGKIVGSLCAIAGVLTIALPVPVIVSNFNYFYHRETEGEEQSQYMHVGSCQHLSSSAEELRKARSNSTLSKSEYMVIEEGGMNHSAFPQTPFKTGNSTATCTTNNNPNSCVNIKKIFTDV
Number in %, nothing else.

1) Cc1ccc(CN(c2ccc(C(=O)N3CCN(c4ccccc4)CC3)cc2)S(=O)(=O)c2ccccc2)cc1 [Example 35] | 56

Exercise: Find the recorded inhibition at 1 µM belonging to O=C(c1ccc(N(Cc2ccccc2)S(=O)(=O)c2ccc(F)cc2)cc1)N1CCN(c2ccccc2)CC1 [Example 19] and report it.
Key: 83

Exercise: Find the recorded inhibition at 1 µM belonging to O=C(c1ccc(N(Cc2ccccc2)S(=O)(=O)c2cccc(Cl)c2)cc1)N1CCN(c2ccccc2)CC1 [Example 30] and report it.
Key: 92

====

Reported inhibition at 1 µM values for a set of molecules
target: hKv1.5 (Homo sapiens, UniProt P22460); assay: Kv1.5 Autopatch electrophysiology (whole cell patch-clamp); type: cell-based; conditions: compound at 1 μM; room temperature (22-24° C.); total charge during step to 0 mV; read-out: hKv1.5 % inh.
Sequence (P22460 whole entry): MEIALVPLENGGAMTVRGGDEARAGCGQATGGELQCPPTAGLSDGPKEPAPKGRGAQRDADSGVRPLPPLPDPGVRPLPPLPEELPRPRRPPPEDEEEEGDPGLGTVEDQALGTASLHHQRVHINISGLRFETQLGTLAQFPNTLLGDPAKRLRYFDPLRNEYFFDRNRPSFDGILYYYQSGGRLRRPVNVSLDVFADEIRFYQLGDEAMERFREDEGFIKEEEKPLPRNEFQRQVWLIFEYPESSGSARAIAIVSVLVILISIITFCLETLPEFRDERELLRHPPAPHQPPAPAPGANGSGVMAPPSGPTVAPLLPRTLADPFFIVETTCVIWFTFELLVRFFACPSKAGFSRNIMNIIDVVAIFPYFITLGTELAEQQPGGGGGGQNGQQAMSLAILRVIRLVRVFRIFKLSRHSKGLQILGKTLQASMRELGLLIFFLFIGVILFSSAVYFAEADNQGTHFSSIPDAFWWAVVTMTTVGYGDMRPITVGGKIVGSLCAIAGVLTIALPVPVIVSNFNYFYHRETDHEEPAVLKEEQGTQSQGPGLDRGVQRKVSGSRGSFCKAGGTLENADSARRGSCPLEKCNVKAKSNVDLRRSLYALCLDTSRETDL
Number in %, nothing else.

Worked examples follow.
1. CC1(C)CCc2cc(S(=O)(=O)N(Cc3ccccc3)c3ccc(C(=O)N4CCN(c5ccccc5)CC4)cc3)ccc2O1 | 58.9
2. O=C(c1ccc(N(Cc2cccc(F)c2)S(=O)(=O)c2ccccc2)cc1)N1CCN(c2ccccc2)CC1 | 61.6
3. Cn1cnc(S(=O)(=O)N(Cc2ccccc2)c2ccc(C(=O)N3CCN(c4ccccc4)CC3)cc2F)c1 | 56.8
4. Cc1ccc(S(=O)(=O)N(Cc2ccccc2)c2ccc(C(=O)N3CCN(c4ccccc4)CC3)cc2)cc1 | 48.1

Exercise: Find the recorded inhibition at 1 µM belonging to O=C(c1ccc(N(Cc2ccccc2)S(=O)(=O)c2ccccc2)cc1)N1CCc2ccccc2C1 and report it.
Key: 50.1

Exercise: Find the recorded inhibition at 1 µM belonging to Cn1cnc(S(=O)(=O)N(Cc2cccc(F)c2)c2ccc(C(=O)N3CCN(c4ccccc4)CC3)cc2)c1 and report it.
Key: 43.6

Exercise: Find the recorded inhibition at 1 µM belonging to O=C(c1ccc(N(Cc2ccc(Cl)cc2)S(=O)(=O)c2cccnc2)cc1)N1CCCCC1 and report it.
Key: 56

Exercise: Find the recorded inhibition at 1 µM belonging to CN1CCN(C(=O)c2ccc(N(Cc3ccccc3)S(=O)(=O)c3ccn(C)n3)cc2)CC1c1ccccc1 (stereo not drawn) and report it.
Key: 40.8

====

target: hKv1.5 (Homo sapiens, UniProt P22460); assay: Kv1.5 Autopatch electrophysiology (whole cell patch-clamp); format: cell-based; conditions: compound at 1 μM; room temperature (22-24° C.); total charge during step to 0 mV; read-out: hKv1.5 % inh.
Reported inhibition at 1 µM values for a set of compounds
Number in %, nothing else.

Worked examples follow.
1) COc1ccc(S(=O)(=O)N(Cc2ccccc2)c2ccc(C(=O)N3CCN(c4ccccc4)CC3)cc2)cc1OC | 61.3
2) Cn1cnc(S(=O)(=O)N(Cc2ccccc2)c2ccc(C(=O)N3CCOC(c4ccccc4)C3)cc2)c1 (stereo not shown) | 74.4
3) O=C(c1ccc(N(Cc2ccccc2Cl)S(=O)(=O)c2ccccc2)cc1)N1CCN(c2ccccc2)CC1 | 47.9

Exercise: Look up inhibition at 1 µM with hKv1.5 (Homo sapiens, UniProt P22460) for this compound: O=C(c1ccc(N(Cc2ccccc2)S(=O)(=O)c2ccc(F)cc2)cc1)N1CCN(c2ccccc2)CC1
Key: 54.6

Exercise: Look up inhibition at 1 µM with hKv1.5 (Homo sapiens, UniProt P22460) for this compound: O=C(c1ccc(N(Cc2ccccc2)S(=O)(=O)c2ccccc2)cc1)N1CCC(O)(Cc2ccccc2)CC1
Key: 40.1

Exercise: Look up inhibition at 1 µM with hKv1.5 (Homo sapiens, UniProt P22460) for this compound: O=C(c1ccc(N(Cc2ccc(F)cc2)S(=O)(=O)c2ccccc2)cc1)N1CCN(c2ccccc2)CC1
Key: 56.3

Exercise: Look up inhibition at 1 µM with hKv1.5 (Homo sapiens, UniProt P22460) for this compound: COc1ccc(C2CCCN(C(=O)c3ccc(N(Cc4ccc(Cl)cc4)S(=O)(=O)c4ccccc4)cc3)C2)cc1 (stereo not shown)
Key: 45.2
